target: human NMUR2 (human, UniProt Q9GZQ4 1-415); test: 125I-hNMU-25 displacement, HEK cell membranes
Sequence (Q9GZQ4 whole entry): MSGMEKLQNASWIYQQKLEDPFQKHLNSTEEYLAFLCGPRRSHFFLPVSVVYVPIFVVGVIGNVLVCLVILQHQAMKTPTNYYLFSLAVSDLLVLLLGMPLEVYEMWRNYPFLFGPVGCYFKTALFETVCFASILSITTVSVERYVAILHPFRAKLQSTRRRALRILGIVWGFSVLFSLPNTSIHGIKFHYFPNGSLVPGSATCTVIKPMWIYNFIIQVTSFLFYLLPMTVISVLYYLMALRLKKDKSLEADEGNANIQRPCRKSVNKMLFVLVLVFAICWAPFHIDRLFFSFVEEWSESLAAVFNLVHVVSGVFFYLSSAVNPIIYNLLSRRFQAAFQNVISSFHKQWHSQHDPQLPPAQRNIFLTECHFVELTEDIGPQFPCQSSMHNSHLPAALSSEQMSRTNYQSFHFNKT
Non-standard residues stand in square brackets, D forms with d. No end group written: not given here.
reported_property: % activity (binding) (%)
I only need the number, in %, no unit after it.

[[record]]
binder = "FRVDEEFQSPFASQSRGYF[dL]WRPRN-NH2 (not fully specified) [neuromedin U receptor agonist H]"
reported_property = "% activity (binding)"
measured_value = 7

[[record]]
binder = "FALFRPRN-NH2 [neuromedin U receptor agonist N]"
reported_property = "% activity (binding)"
measured_value = 100

[[record]]
binder = "YF[dL]WRPRN-NH2 (N-terminus assumed; SMILES CC(C)C[C@@H](NC(=O)[C@H](Cc1ccccc1)NC(=O)[C@@H](N)Cc1ccc(O)cc1)C(=O)N[C@@H](Cc1c[nH]c2ccccc12)C(=O)N[C@@H](CCCNC(=N)N)C(=O)N1CCC[C@H]1C(=O)N[C@@H](CCCNC(=N)N)C(=O)N[C@@H](CC(N)=O)C(N)=O) [neuromedin U receptor agonist B]"
reported_property = "% activity (binding)"
measured_value = 35


Now, please, on to the next binder.
Enquiry: # % activity (binding) lookup, item YFGWRPRN-NH2 [neuromedin U receptor agonist C]
Return: 0
